Tested on: Human immunodeficiency virus 1
Test: Antiviral activity against wild type HIV1 3B infected in human MT4 cells assessed as protection from virus-induced cytopathicity after 4 days by MTT assay
Assay type: functional, organism-based
Conditions: Human immunodeficiency virus 1, 3B, MT4, 96 h
readout-name: pEC50
Just so you know, pEC50 here is -log10 of the concentration in molar units; reply with that number alone.

Cc1cc(C#N)cc(C)c1Oc1ccnc(NC2CCN(CC(=O)Nc3cccc(F)c3)CC2)n1    8.21

**Query** // pEC50 lookup, key: Cc1cccc(NC(=O)CN2CCC(Nc3nccc(Oc4c(C)cc(C#N)cc4C)n3)CC2)c1
**Result** 8.18

**Query** // next record Cc1cc(C#N)cc(C)c1Oc1ccnc(NC2CCN(CC(=O)Nc3ccccc3F)CC2)n1
**Result** 8.15

**Query** // next record Cc1ccc(NC(=O)CN2CCC(Nc3nccc(Oc4c(C)cc(C#N)cc4C)n3)CC2)cc1C
**Result** 8.07

Measured values drawn from ChEMBL document CHEMBL3425444 for this set.
